target: T1, human IGF-IR (Homo sapiens, UniProt P08069); test: Surface plasmon resonance (BIAcore) binding kinetics and affinity on immobilized IGF-IR; conditions: Table 7, FG loop optimized 338A06 clones
T1 construct: The extracellular domain of human IGF-IR (aa 1-932) was cloned into a mammalian expression vector; made in house
ENDPOINT LABEL: ka

386A03 (protein) VSDVPRDLEVVAATPTSLLISWSARLKVARYYRITYGETGGNSPVQEFTVPKNVYTATISGLKPGVDYTITVYAVTNLRDYGPISINYRTHHHHHH : 5.2 1/M*s × 10^+6
387B01 (protein) VSDVPRDLEVVAATPTSLLISWSARLKVARYYRITYGETGGNSPVQEFTVPKNVYTATISGLKPGVDYTITVYAVTSLRDYGPISINYRTHHHHHH : 6.5 1/M*s × 10^+6
386F10 (protein) VSDVPRDLEVVAATPTSLLISWSARLKVARYYRITYGETGGNSPVQEFTVPKNVYTATISGLKPGVDYTITVYAVTLLRDYGPISINYRTHHHHHH : 1.9 1/M*s × 10^+6

The molecule identified as 385A08 (protein) VSDVPRDLEVVAATPTSLLISWSARLKVARYYRITYGETGGNSPVQEFTVPKNVYTATISGLKPGVDYTITVYAVTRFRDYQPISINYRTHHHHHH registered its ka at 5.7 1/M*s × 10^+6
